Experiment: Unbound brain-to-plasma concentration ratio in P-gp knock out Sprague-Dawley rat
Conditions: brain
Quantity name: Kp uu
Write the value as a bare number.

Query: Bench note: what Kp uu did C=C[C@H]1C[N@@]2CC[C@H]1C[C@@H]2[C@@H](O)c1ccnc2ccc(OC)cc12 show?
Reply: 0.065

Query: Bench note: what Kp uu did CC[C@H]1OC(=O)[C@H](C)[C@@H](O[C@H]2C[C@@](C)(OC)[C@@H](O)[C@H](C)O2)[C@H](C)[C@@H](O[C@@H]2O[C@H](C)C[C@H](N(C)C)[C@H]2O)[C@](C)(OC)C[C@@H](C)C(=O)[C@H](C)[C@@H](O)[C@]1(C)O show?
Reply: 0.014

Query: Bench note: what Kp uu did COc1ccc2c(c1)c(CC(=O)O)c(C)n2C(=O)c1ccc(Cl)cc1 show?
Reply: 0.074

Query: Bench note: what Kp uu did Cc1nc(Nc2ncc(C(=O)Nc3c(C)cccc3Cl)s2)cc(N2CCN(CCO)CC2)n1.O show?
Reply: 0.016

Query: Bench note: what Kp uu did CN(C)CCc1c[nH]c2ccc(C[C@H]3COC(=O)N3)cc12 show?
Reply: 0.035

Query: Bench note: what Kp uu did CCN(CC)CCNC(=O)c1cc(Cl)c(N)cc1OC [METOCLOPRAMIDE] show?
Reply: 2.45

The reported numbers originate from ChEMBL document CHEMBL4823245.
